# System: L1210 leukemia ip in BDF1 mice, survival T/C
# Measurement description: NCI In Vivo Anticancer Drug Screen. Data for tumor model L1210 Leukemia (intraperitoneal) in B6D2F1 (BDF1) mice
# Particulars: endpoint: mean survival time; dose: 400.0 mg/kg/injection; schedule: Q01DX001 (ip); vehicle: saline with Tween-80; higher = longer survival
Inconclusive results and toxic doses are left out.
# key: entry, value: T/C

Examples from the recorded data:
CS(=O)(=O)OC1CCC(OS(C)(=O)=O)CC1 (stereo unspecified)
100 % of control
CC(=O)OC1CCC2C3CCC4=CC(=O)CCC4(C)C3=CCC12C (stereo unspecified)
92 % of control
O=S(=O)(NOCCCCONS(=O)(=O)c1ccccc1)c1ccccc1
97 % of control
CCOC(=O)c1csc(CNC(=O)c2ccccc2)n1
104 % of control
OCCCOc1ccccc1
100 % of control

Continue with the compound presented below.
Value lookup for T/C; key = N#Cc1csc(CCNC(=O)c2ccccc2)n1
93 % of control
